- study_target: T1, Recombinant human HER2 ectodomain (human, UniProt P04626 23-652, biotinylated on primary amines (for SPR and crude extract ELISA))
- T1 construct: extracellular domain; also called ErbB2; ectodomain of human HER2; not shown: Flag tag
- assay_method_text: SPR (ProteOn); biotinylated human HER2 on neutravidin chip, monovalent DARPin injected
measured_attribute: log10(Kd) (log10 of the value in nM)
Values are log10 of Kd in nM.

For the binder shown here, DARPin #59 (designed binder, monovalent) MRGSHHHHHHGSDLGVKLLWAAARGQDDEVRELLKAGADVNAKDFQGITPLHIAATNGHLEIVEVLLKAGADVNAKDITGETPLHHAADSGHLEIVEVLLKAGADVNAQDKAGVTPADLAAAWGHEDIAEVLQKLN , give the reported log10(Kd).
-1.48

Ok, now DARPin #6 (designed binder, monovalent) MRGSHHHHHHGSDLGVNLLWAATRGQDDEVRILLAAGADVNAKDFEGVTPLHLAAQWGHLEIVEVLLKAGADVNAKDVTGDTPLHLAAQHGHLEIVEVLLKAGADVNAQDERGWTPADLAADWGHEDIAEVLQKLN
-1.53

Ok, now DARPin #11 (designed binder, monovalent) MRGSHHHHHHGSDLGIKLLFAASRGQDDEVRILLAAGADVNAKDFEGITPLHAAARSGHLEIVEVLLKAGADVNAKDVEGWTPLHYAASYGHLEIVEVLLKAGADVNAQDNHGATPADLAAQWGHEDIAEVLQKLN
-0.59

Same read-out for DARPin #2 (designed binder, monovalent) MRGSHHHHHHGSDLGVKLLWAAARGQDDEVRELLKAGADVNAKDFQGITPLHIAATSGHLEIVEVLLKAGADVNAKDITGETPLHHAADSGHLEIVEVLLKAGADVNAQDKAGVTPADLAAAWGHEDIAEVLQKLN ?
-0.06

Do the same for DARPin #21 (designed binder, monovalent) MRGSHHHHHHGSDLGKKLLEAARAGQDDEVRILMANGADVNATDIHGHTPLHLAAAMGHLEIVEVLLKNGADVNANDWRGFTPLHLAALNGHLEIVEVLLKNGADVNATDTAGNTPLHLAAWFGHLEIVEVLLKNGADVNAQDKFGKTAFDISIDNGNEDLAEILQKLN please
0.22

Now try DARPin #5 (designed binder, monovalent) MRGSHHHHHHGSDLGVKLLWAAARGQDDEVRILLAAGADVNAKDFQGITPLHIAATNGHLEIVEVLLKAGADVNAKDITGETPLHHAADSGHLEIVEVLLKAGADVNAQDKAGVTPADLAAAWGHEDIAEVLQKLN .
-1.15

Lookup DARPin #55 (designed binder, monovalent) MRGSHHHHHHGSDLGIKLLIAASHGQDDEVRILLAAGANVNAKDFQGVTPLHIAAQSGHLEIVEVLLKAGADVNAKDVTGDTPLHLAAQHGHLEIVEVLLKAGADVNAQDERGWTPADLAADWGHEDIAEVLQKLN
-1.06

Same again, this time with DARPin #12 (designed binder, monovalent) MRGSHHHHHHGSDLGKKLLEAARAGQDDEVRILMANGADVNAKDFYGITPLHLAAAYGHLEIVEVLLKHGADVNAHDWNGWTPLHLAAKYGHLEIVEVLLKHGADVNAIDNAGKTPLHLAAAHGHLEIVEVLLKYGADVNAQDKFGKTAFDISIDNGNEDLAEILQKLN
0.15

// next record DARPin #54 (designed binder, monovalent) MRGSHHHHHHGSDLGIKLLFAAAKGQDDEVRELLKAGADVNAKDFQGVTPLHIAAQSGHLEIVEVLLKAGADVNAKDVTGDTPLHLAAQHGHLEIVEVLLKAGADVNAQDERGWTPADLAADWGHEDIAEVLQKLN
-2.03

Next: DARPin #15 (designed binder, monovalent) MRGSHHHHHHGSDLGAKLLVAATSGQDDEVRILLAAGADVNAKDRIGFTPLHRAAFVGHLEIVEVLLKAGADVNAQDDFGHTPADLAASLGHEDIAEVLQKLN
-0.33

// repeat for DARPin #4 (designed binder, The list of constructs skips DARPin #4) MRGSHHHHHHGSDLGVKLLWAAARGQDDEVRELLKAGADVNAKDFQGITPLHIAAQSGHLEIVEVLLKAGADVNAKDVTGDTPLHLAAQHGHLEIVEVLLKAGADVNAQDERGKTPADLAADWGHEDIAEVLQKLN and report
-0.73

Queued: DARPin #58 (designed binder, monovalent) MRGSHHHHHHGSDLGFKLLFAAAKSQDDEVRILLAAGADVNAKDFQGVTSLHIAAQSGHLEIVEVLLKAGADVNAKDVTGDTPLHLAAQHGHLEIVEVLLKAGADVNAQDERGWTPADLAADWGHEDIAEVLQKLN
-1.38

Here is the next binder: DARPin #60 (designed binder, monovalent) MRGSHHHHHHGSDLGVKLLWAAARGQDDEVRELLKAGADVNAKDFQGITPLHIAAQSGHLEIVEVLLKAGADVNAKDVTGDTPLHLAAQHGHLEIVEVLLKAGADVNAQDERGWTPADLAADWGHEDIAEVLQKLN
-1.93

Another: DARPin #10 (designed binder, monovalent) MRGSHHHHHHGSDLGVKLLWAASHGQDDEVRILLAAGADVNAKDFFGITPLHQAAWGHLEIVEVLLKAGADVNAKEEDGTTPLHLAATHGHLEIVEVLLKAGADVNAQDWYGTTPADLAAWWGHEDIAEVLQKLN
0.01
